# assay-overview: Plasma pharmacokinetics (LC–MS/MS, non-compartmental analysis)
# Format: in vivo, Japanese patients
# test-settings: human, plasma, oral, 800 mg, Cycle 1 Day 1; 800 mg qd; n = 3; read-out: AUClast, Median
test-readout: AUC(0-t) (ng·h/mL)
The reply should be a number in ng·h/mL, with the unit left off.

The compound listed as Cn1c(=O)n(-c2ccc(C(C)(C)C#N)cc2)c2c3cc(-c4cnc5ccccc5c4)ccc3ncc21 [BEZ235] has a reported AUC(0-t) of 2560

###

# assay-overview: Plasma pharmacokinetics (LC–MS/MS, non-compartmental analysis)
# Assay type: in vivo, Japanese patients
# test-settings: human, plasma, oral, 800 mg, Cycle 1 Day 8; 800 mg qd; n = 3; read-out: Tmax, Median
test-readout: Tmax (h)
The reply should be a number in h, with the unit left off.

The molecule listed as Cn1c(=O)n(-c2ccc(C(C)(C)C#N)cc2)c2c3cc(-c4cnc5ccccc5c4)ccc3ncc21 has a reported Tmax of 6
